Every entry's value here was drawn from ChEMBL document CHEMBL3808314.

assay-notes: Cmax in mouse at 5 mg/kg, po
Assay type: ADME, organism-based
Design: dose 5 mg/kg, route oral
condition-details: in vivo
measured-attribute: Cmax (ng/mL)

(P) CNC(=O)c1ccc2c(c1)nc(-c1ccccc1SC)n2[C@@H]1CCC[C@H](NC(=O)c2ccc(Br)s2)C1 (relative stereo)
(Q) CNC(=O)c1ccc2c(c1)nc(-c1ccccn1)n2[C@@H]1CCC[C@H](NC(=O)c2ccc(Br)s2)C1 (relative stereo)
Inquiry: Endpoint returns the identifier whose Cmax is numerically larger, either P or Q . Reply with the label of the item you choose.
Reply text: Q
